Tested on: SEM cells
Assay: cell viability relative to DMSO control; higher = less cytotoxic
Conditions: RPMI 5 mM glucose + 10% dialyzed FBS; 48 h; 15.4 µM
Listed here are compounds together with their documented cell viability.
Parameter: cell viability (%)

- CC1=C(/C=C/C(C)=C/C=C/C(C)=C\C(=O)O)C(C)(C)CCC1: 77.8
- Cc1c(-c2cccc3c(CCCOc4cccc5ccccc45)c(C(=O)O)n(Cc4cccnc4)c23)c(COc2ccc(N3CCN([S+](=O)([O-])N(C)C)CC3)cc2)nn1C: 70
- C[C@@H]1CCN(C(=O)CC#N)C[C@@H]1N(C)c1ncnc2[nH]ccc12: 83.5
- COc1cc([C@@H](CC(=O)O)c2ccc(C)c(CN3C[C@@H](C)Oc4ccccc4[S+]3(=O)[O-])c2)cc2nnn(C)c12: 64.4
- C[C@]12Cc3cn[nH]c3C[C@@H]1CC[C@@H]1[C@@H]2CC[C@@]2(C)[C@H]1CC[C@]2(C)O: 105
- Clc1cccc(-n2nnnc2NCc2ccccc2Oc2ccccn2)c1Cl: 147
- CCOc1cc2ncc(C#N)c(Nc3ccc(OCc4ccccn4)c(Cl)c3)c2cc1NC(=O)/C=C/CN(C)C: 6.47
- CO[C@@]12[C@H](COC(N)=O)C/3=C(N1C[C@@H]4N[C@H]24)/C(=O)/C(=C(N)\C3=O)C: 114
- Cc1nn(C)c(COc2ccc(N3CCN([S+](=O)([O-])N(C)C)CC3)cc2)c1-c1cccc2c(CCCOc3cccc4ccccc34)c(C(=O)O)n(CCN3CCOCC3)c12: 117
- N[S+](=O)([O-])c1cc2c(cc1Cl)NC(C(Cl)Cl)N[S+]2(=O)[O-] (stereo unspecified): 106
- NC(=O)[C@H]1CCS[C@@H]2C[C@]3(CCCN3C(=O)Cc3ccc(NC(=O)COc4ccc(Cl)cc4Cl)cc3)C(=O)N12: 20.8
- CC(C)=CCC/C(C)=C/CC/C(C)=C/CSc1ccccc1C(=O)O: 33.8
- CC[C@]12CC[C@H]3[C@@H](CCC/4=C/C(=O)CC[C@H]34)[C@@H]1CC[C@@]2(O)C#C: 111
- CCCC(C)(COC(N)=O)COC(=O)NC(C)C (stereo unspecified): 164
- CCC[S+](=O)([O-])Nc1ccc(F)c(C(=O)c2c[nH]c3ncc(Cl)cc23)c1F: 46.9
- N#C/C(=C\c1ccc(O)c(O)c1)C(=O)NCc1ccccc1: 69
